Tested on: LXRb homodimer (NR concentration 270 nM)
Assay: PBM binding z-score (relative to random genomic background probes); higher = stronger binding; sequences stand for … in GC…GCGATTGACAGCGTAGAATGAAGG
experimental.endpoint: PBM binding z-score
I only need the number, thanks.

{"sequence": "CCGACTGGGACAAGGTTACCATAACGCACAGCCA", "PBM binding z-score": -0.706}
{"sequence": "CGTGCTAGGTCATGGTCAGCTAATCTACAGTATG", "PBM binding z-score": -0.338}
{"sequence": "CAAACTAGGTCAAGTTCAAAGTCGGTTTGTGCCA", "PBM binding z-score": 1.37}

Record request: PBM binding z-score value, item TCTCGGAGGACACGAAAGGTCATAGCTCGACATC
0.51

What value of PBM binding z-score has been recorded for this entry: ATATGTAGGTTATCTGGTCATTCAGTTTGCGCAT
0.901

What does the record list as PBM binding z-score for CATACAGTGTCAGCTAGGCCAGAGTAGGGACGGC ?
0.0378

I am curious: what PBM binding z-score value has been reported for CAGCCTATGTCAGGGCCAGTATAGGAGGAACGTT ?
-0.259

Could you share which PBM binding z-score value was measured for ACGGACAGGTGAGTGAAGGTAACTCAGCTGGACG ?
-0.864

Recorded PBM binding z-score for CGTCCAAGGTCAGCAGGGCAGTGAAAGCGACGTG , please?
-0.623

For the sequence shown here, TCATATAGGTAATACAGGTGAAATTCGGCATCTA , give the reported PBM binding z-score.
0.147

I have this sequence here, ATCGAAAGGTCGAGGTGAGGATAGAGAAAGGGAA , and I need its recorded PBM binding z-score.
0.457

Please report the recorded PBM binding z-score for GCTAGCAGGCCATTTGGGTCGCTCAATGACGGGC .
-1.24

// returns reported PBM binding z-score for input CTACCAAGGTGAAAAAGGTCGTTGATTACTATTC
-0.412

What does the data say about its PBM binding z-score? Entry: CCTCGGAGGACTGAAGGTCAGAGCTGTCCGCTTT
-0.722

Which PBM binding z-score value belongs to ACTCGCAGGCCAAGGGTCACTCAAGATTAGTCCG ?
-0.377

Param item = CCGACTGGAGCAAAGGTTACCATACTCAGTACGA ; retrieve measured PBM binding z-score.
-0.613

Consider the sequence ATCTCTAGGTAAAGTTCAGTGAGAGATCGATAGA and give its measured PBM binding z-score.
0.57

Param item = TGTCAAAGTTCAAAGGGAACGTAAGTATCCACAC ; retrieve measured PBM binding z-score.
1.68

Which value of PBM binding z-score has been reported for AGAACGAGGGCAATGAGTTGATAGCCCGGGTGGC in the records?
-0.943
